Please respond with reported IC50 for every item in the list.
Target Or System: MMP-1 (Homo sapiens)
Sequence (P03956 100-469): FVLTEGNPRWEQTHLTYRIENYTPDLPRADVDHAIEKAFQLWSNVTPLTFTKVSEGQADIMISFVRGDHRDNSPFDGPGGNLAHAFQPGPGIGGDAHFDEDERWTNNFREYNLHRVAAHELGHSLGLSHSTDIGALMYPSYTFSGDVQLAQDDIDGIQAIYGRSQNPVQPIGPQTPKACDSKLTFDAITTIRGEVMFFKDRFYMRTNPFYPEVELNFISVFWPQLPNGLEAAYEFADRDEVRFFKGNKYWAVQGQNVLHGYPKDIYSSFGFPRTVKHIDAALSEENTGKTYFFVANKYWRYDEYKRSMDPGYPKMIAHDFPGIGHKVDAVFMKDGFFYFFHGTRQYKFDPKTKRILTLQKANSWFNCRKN
Test Details: MMP-1 inhibitory action (Type I collagen Activity Measurement kit, FITC-labeled collagen type I)
Type: biochemical
Experimental Parameters: MMP-1 inhibitory action, FITC-labeled collagen type I, 37° C. for 3 hr; read-out: IC50 MMP1 (Experimental Example 2)

Lookup: Any idea what IC50 was measured for COC(=O)Cc1cccc(C2CC2(NS(=O)(=O)c2ccc(-c3cc(C(F)(F)F)on3)s2)C(=O)O)c1 (stereo not drawn) [Example 2-219] ?
Found: ≥ 1 µM

Lookup: Any idea what IC50 was measured for O=C(CCc1cccc(C2CC2(NS(=O)(=O)c2ccc(-c3cc(C(F)(F)F)on3)s2)C(=O)O)c1)N1CCOCC1 (stereo not drawn) [Example 2-234] ?
Found: ≥ 1 µM

Lookup: Any idea what IC50 was measured for CC(C)NC(=O)COc1ccccc1C1CC1(NS(=O)(=O)c1ccc(-c2ccc(Cl)cc2)s1)C(=O)O (stereo not drawn) [Example 1-147] ?
Found: ≥ 10 µM

Lookup: Any idea what IC50 was measured for CN1CCN(c2ccc(C3CC3(NS(=O)(=O)c3ccc(-c4ccc(Cl)cc4)s3)C(=O)O)cc2)CC1 (stereo not drawn) [Example 2-247] ?
Found: ≥ 10 µM

Lookup: Any idea what IC50 was measured for CN1CCN(C(=O)CCc2cccc(C3CC3(NS(=O)(=O)c3ccc(-c4cc(C(F)(F)F)on4)s3)C(=O)O)c2)CC1 (stereo not drawn) [Example 2-235] ?
Found: ≥ 1 µM

Lookup: Any idea what IC50 was measured for O=C(O)C1(NS(=O)(=O)c2ccc(-c3ccc(OC(F)(F)F)cc3)s2)CC1c1ccccc1 (stereo not drawn) [Example 2-17] ?
Found: ≥ 10 µM

Lookup: Any idea what IC50 was measured for O=C(CCc1ccccc1C1CC1(NS(=O)(=O)c1ccc(-c2cc(C(F)(F)F)on2)s1)C(=O)O)N1CCOCC1 (stereo not drawn) [Example 2-230] ?
Found: ≥ 10 µM

Lookup: Any idea what IC50 was measured for NC(=O)Nc1cccc(C2CC2(NS(=O)(=O)c2ccc(-c3ccc(Cl)cc3)s2)C(=O)O)c1 (stereo not drawn) [Example 1-135] ?
Found: ≥ 1 µM

Lookup: Any idea what IC50 was measured for O=C(O)C1(NS(=O)(=O)c2ccc(-c3ccc(Cl)cc3)s2)CC1c1cccc(CO)c1 (stereo not drawn) [Example 1-134] ?
Found: ≥ 1 µM

Lookup: Any idea what IC50 was measured for O=C(O)C1(NS(=O)(=O)c2ccc(-c3ccc(Cl)cc3)cc2)CC1c1cccc(Oc2ccccc2)c1 (stereo not drawn) [Example 1-10] ?
Found: ≥ 1 µM

Lookup: Any idea what IC50 was measured for C[C@]1(c2ccccc2)C[C@@]1(NS(=O)(=O)c1ccc(-c2ccc(Cl)c(N)c2)s1)C(=O)O [Example 2-12] ?
Found: < 1 µM

Lookup: Any idea what IC50 was measured for O=C(O)[C@]1(NS(=O)(=O)/C=C/c2cccc(C(F)(F)F)c2)C[C@@H]1c1ccccc1 [Example 2-162] ?
Found: ≥ 10 µM

Lookup: Any idea what IC50 was measured for Cn1nc(-c2ccc(S(=O)(=O)NC3(C(=O)O)CC3c3ccccc3)s2)cc1C(F)(F)F (stereo not drawn) [Example 2-16] ?
Found: ≥ 10 µM

Lookup: Any idea what IC50 was measured for O=C(c1ccccc1C1CC1(NS(=O)(=O)c1ccc(-c2ccc(Cl)cc2)s1)C(=O)O)N1CCOCC1 (stereo not drawn) [Example 2-76] ?
Found: ≥ 10 µM

Lookup: Any idea what IC50 was measured for O=C(O)C1(NS(=O)(=O)c2cccs2)CC1c1ccccc1 (stereo not drawn) [Example 2-83] ?
Found: ≥ 10 µM

Lookup: Any idea what IC50 was measured for O=C(O)C1(NS(=O)(=O)N2CCn3c(cc4cc(Cl)ccc43)C2)CC1c1ccccc1 (stereo not drawn) [Example 2-156] ?
Found: ≥ 10 µM

Lookup: Any idea what IC50 was measured for Nc1cccc(C2CC2(NS(=O)(=O)c2ccc(-c3cc(C(F)(F)F)on3)s2)C(=O)O)c1 (stereo not drawn) [Example 2-201] ?
Found: ≥ 10 µM

Lookup: Any idea what IC50 was measured for Nc1ccc(S(=O)(=O)NC2(C(=O)O)CC2c2ccccc2)s1 (stereo not drawn) [Example 2-165] ?
Found: ≥ 10 µM

Data credit: patent US20080261994A1
